# Assay protocol: Pilot pharmacokinetic study in mice
# Format: in vivo, mouse
# Assay setup: female, athymic nude, plasma; 2 mg/kg oral, 24 h, nude mice, 1 mouse per time point
Measurement label: concentration at 24 h (ng/mL)
Give the value in ng/mL but do not write ng/mL after it.

Prompt: Write down concentration at 24 h measured for item CCCCCCCCCCCCCCC1CN2CCCN3CCCCCC132 (stereo not shown)
Response: 0.5

----------
# Assay protocol: Pilot pharmacokinetic study in mice
# Format: in vivo, mouse
# Assay setup: female, athymic nude, mouse, plasma, iv; 1 mg/kg i.v., nude mice; read-out: Half-life (converted)
Measurement label: half-life (h)
Form entry: value (h) — number only.

Prompt: Let me know recorded half-life for CCCCCCCCCCCCCCC1CN2CCCN3CCCCCC132 (stereo not shown) , thanks.
Response: 5.4
